- assayDetails: amyloid nucleation score (Sup35N fusion, yeast selection) (log enrichment); library NNK2; higher = more nucleation; inactive = no reads after selection;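 note: zero at mode of non-aggregating sequences after 7 days selection at 30°C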
Classification field: enter true for amyloid nucleation score values not below 3, false for values below it.

Assess whether reported amyloid nucleation score for IQTHSSSWG sits at 3 or higher.
false

----------
- assayDetails: amyloid nucleation score (Sup35N fusion, yeast selection) (log enrichment); library NNK3; higher = more nucleation; inactive = no reads after selection
observable: amyloid nucleation score
One number for each entry.

[[record]]
primarysequence = "RAFHYNSCKSVSAVLDLNVL"
number = -0.094

[[record]]
primarysequence = "IEFLFMYTWWAVLNSGSK"
number = 0.999

[[record]]
primarysequence = "NSLFCTWSSPWVYNPTYGWE"
number = 1.26


Here's the next entry for you.
Dear colleague, I am looking for the recorded amyloid nucleation score of the following sequence: IVDHNIMI
0.718

----------
For each of the substances below, state its amyloid nucleation score.
- assayDetails: amyloid nucleation score (Sup35N fusion, yeast selection) (log enrichment); library NNK2; higher = more nucleation; inactive = no reads after selection
One number for each entry.

[[record]]
substance = "RWVSGQTYVVLSIVR"
number = 0.242


Please look at the items below and tell me amyloid nucleation score for each one, in order.
1. TWLIRPKWVSVQVIRMLPMV
2. NCKMVMIGCDRNYL
3. CPLRLTRGLKCRVYINWEHQ
4. FLSYLN
5. LWVSSSLSL
6. KFSKIRFAFIIFGSKPYMRV
7. DPITFEVSCNANVIDPNSLV

1: 1.11; 2: -1.37; 3: 0.354; 4: -0.322; 5: -0.74; 6: -0.875; 7: -1.22

# batch size: 6; output amyloid nucleation score per entry
1. IPTSYSRPITIWGYR
2. DAKPVCIDGLFI
3. PAWSITLVPLLHTGCSDTKR
4. VINTEVCIEGGRQVRPAPRL
5. SPHLGLMCK
6. GLLKTQ

-1.3
-0.839
0.582
1
0.416
-0.087

Hi, could you look up amyloid nucleation score for each item in my list?
1. KWPHRYINTLVPLLIRWTYR
2. GRDPGNDEIDKLALSWRLMG

[-0.421, 0.657]

----------
- assayDetails: amyloid nucleation score (Sup35N fusion, yeast selection) (log enrichment); library NNK1; higher = more nucleation; inactive = no reads after selection
observable: amyloid nucleation score

Guide cases for amyloid nucleation score, answers given:
[[record]]
substance = "RQMRPLGRGPS"
result = -0.169

[[record]]
substance = "SCNDTI"
result = -0.172

[[record]]
substance = "CMLLNWIPMRRARLTTFVGK"
result = 0.433

[[record]]
substance = "LLVESKAYGWHVMRGQTWTR"
result = -0.045

[[record]]
substance = "LVYILMLYWVYGQIGNFSLV"
result = -0.955


I'm hoping you can list amyloid nucleation score for every substance here, please.
1. RSNTRCAFKNFIFSMTCAFK
2. GIVRVKSTCERSPDSATYDL
3. LREGTFRLRQVTTFRGYRPW
4. IYAYAIDSFRSLVFFVFMFG

1: 0.823; 2: -0.205; 3: 0.101; 4: inactive

List reported amyloid nucleation score for each of these substances:
1. RFLGIRTATMDMGSKERMWV
2. NGSYCKQILSRYVCRGECLH
3. SGVSVVEGYHRSRVACRSVM
4. TVRFHYQGFTVS
5. YLCQRHSFTRSRYHFLLRPV
6. AATGRTVCESREWGKVLAVC

1: 0.601; 2: -1.85; 3: -0.158; 4: -0.236; 5: -1.02; 6: -0.459

Batch: amyloid nucleation score for all items listed.
1. NSCRMPYSGV
2. FTFSFLYFFQWCHTGAPARF

inactive
0.602
